Experiment: AUC (0-4 hr) ug/ml/h
Type: ADME, cell-free
Design: time < 4 hr
Conditions: plasma
measuredEndpoint: AUC (ng·h/mL)

Examples with their reported AUC follow.
smilesEntry: O=C(O)c1cn(C2CC2)c2cc(N3CCNCC3)c(F)cc2c1=O
quantityUnit: ng·h/mL
dataValue: 2300
//
smilesEntry: CCNC[C@H]1CN(c2c(F)cc3c(=O)c(C(=O)O)cn(C4CC4)c3c2F)[C@@H]1C
quantityUnit: ng·h/mL
dataValue: 11800
//
smilesEntry: C[C@H]1[C@@H](N)CN1c1c(F)cc2c(=O)c(C(=O)O)cn(C3CC3)c2c1F
quantityUnit: ng·h/mL
dataValue: 9000
//
smilesEntry: C[C@H]1[C@H](N)CN1c1c(F)cc2c(=O)c(C(=O)O)cn(-c3ccc(F)cc3F)c2c1F
quantityUnit: ng·h/mL
dataValue: 22300
//
smilesEntry: C[C@H]1N(c2c(F)cc3c(=O)c(C(=O)O)cn(C4CC4)c3c2F)C[C@]1(C)N
quantityUnit: ng·h/mL
dataValue: 20600

1 = C[C@@H]1[C@@H](CN)CN1c1cc2c(cc1F)c(=O)c(C(=O)O)cn2C1CC1
2 = C[C@H]1[C@H](N)CN1c1cc2c(cc1F)c(=O)c(C(=O)O)cn2-c1ccc(F)cc1F
3 = C[C@H]1[C@H](N)CN1c1c(F)c(N)c2c(=O)c(C(=O)O)cn(C3CC3)c2c1F
4 = C[C@H]1[C@H](N)CN1c1c(F)cc2c(=O)c(C(=O)O)cn(C3CC3)c2c1Cl
5 = C[C@@H]1[C@@H](CN)CN1c1c(F)cc2c(=O)c(C(=O)O)cn(C3CC3)c2c1F
// smallest AUC at index 0, largest at the end Response field: labels, in requested order. 1, 5, 4, 3, 2
